Reported GI50 values are given for each entry in this list.
- Tested on: 92.1 uveal melanoma cell line (heterozygous GNAQ Q209L)
- measurement_description: Cell proliferation assay (resazurin cell viability), 92.1 cell line
- Assay type: cell-based
- run_parameters: 92.1 (GNAQ Q209L); 96 hours of treatment; read-out: GI50 by cell line, 92.1
Starred links: 1 amine or outer side, 2 acyl side, 3 side chain; linkers in the order of their positions; H or OH if unused. Positions of bridges follow the written chain, without caps; N, C: chain ends. Non-standard residues stand in square brackets, D forms with d. Residues, ends and D or L forms follow the SMILES beside them. ξ: configuration not given here. *: point of attachment. Leu(3R-OH,Nα-propionyl) = CCC(=O)N[C@H](C(=O)*)[C@H](O)C(C)C; X1 = CC(C)[C@@H](O[*:3])[C@H](N[*:1])C(=O)[*:2]; X3 = CC(C)C(O[*:3])C(N[*:1])C(=O)[*:2]; ξLeu(3ξ-OH) = CC(C)C(O)C(N)C(=O)O; NMeT = CN[CH](C(=O)O)[CH](C)O; dPhLac = O=C(O)[C@H](O)Cc1ccccc1; PhLac = O=C(O)[CH](O)Cc1ccccc1; NMeA = CN[CH](C)C(=O)O; NMeDha = C=C(NC)C(=O)O
Give the value in nM but do not write nM after it.

molecule	GI50 / nM
C=C1C(=O)NC(C)C(=O)N(C)C(C)C(=O)NC(C(O)C(C)C)C(=O)N(C)C(C(C)OC)C(=O)OC(C(C)C)C(NC(C)=O)C(=O)OC(Cc2ccccc2)C(=O)N1C (stereo not drawn) [Compound 12] (Ac-[X3][PhLac][NMeDha]A[NMeA][ξLeu(3ξ-OH)][NMeT](Me); ester 1-C; configuration not given here)	1740

With those in mind, consider the next molecule.
[in] Quote 92.1 uveal melanoma cell line (heterozygous GNAQ Q209L) GI50 for entry CCC(=O)N[C@H](C(=O)O[C@H](C(C)C)[C@@H]1NC(=O)[C@H](C)N(C)C(=O)[C@H](C)NC(=O)[C@H](C)N(C)C(=O)[C@@H](Cc2ccccc2)OC(=O)[C@@H](NC(C)=O)[C@@H](C(C)C)OC(=O)[C@H]([C@@H](C)OC)N(C)C1=O)[C@H](O)C(C)C [Compound 10] (Ac-[X1][dPhLac][NMeA]A[NMeA][X1](Leu(3R-OH,Nα-propionyl))[NMeT](Me); ester 1-C) .
[out] 607

----------
- measurement_description: Cell-based transwell assay with MDCK-low efflux monolayers (passive permeability)
- Format: in vitro ADME
- run_parameters: dog; MDCK-LE monolayers
Starred links: 1 amine or outer side, 2 acyl side, 3 side chain; linkers in the order of their positions; H or OH if unused. Positions of bridges follow the written chain, without caps; N, C: chain ends. Non-standard residues stand in square brackets, D forms with d. Residues, ends and D or L forms follow the SMILES beside them. *: point of attachment. Leu(3R-OH,Nα-propionyl) = CCC(=O)N[C@H](C(=O)*)[C@H](O)C(C)C; X1 = CC(C)[C@@H](O[*:3])[C@H](N[*:1])C(=O)[*:2]; NMeT = CN[C@H](C(=O)O)[C@@H](C)O; dPhLac = O=C(O)[C@H](O)Cc1ccccc1; NMeA = CN[C@@H](C)C(=O)O; NMeDha = C=C(NC)C(=O)O
measured_endpoint: Papp A→B
Don't forget the unit after the number, please.

[in] Give the measured Papp A→B for C=C1C(=O)N[C@@H](C)C(=O)N(C)[C@@H](C)C(=O)N[C@@H]([C@H](OC(=O)[C@@H](NC(=O)CC)[C@H](O)C(C)C)C(C)C)C(=O)N(C)[C@@H]([C@@H](C)OC)C(=O)O[C@H](C(C)C)[C@H](NC(C)=O)C(=O)O[C@H](Cc2ccccc2)C(=O)N1C [Compound (A1), FR900359] (Ac-[X1][dPhLac][NMeDha]A[NMeA][X1](Leu(3R-OH,Nα-propionyl))[NMeT](Me); ester 1-C)
[out] 4.06 ×10⁻⁶ cm/s

Data credit: patent US20240252668A1
